Values compiled from PubChem BioAssay (NCI).

test system: DU-145 prostate; test: NCI-60 one-dose screen, 48 h; conditions: 10 µM unless noted
About 83,000 compounds went through this panel and 20% of them were active in at least one assay; those are over-represented in the sample as a whole. Activity calls are given as the source filed them. Rule for the calls: active = growth percent below 10; inactive = the rest.
# output must be one of true = active, false = inactive

Past entries and their recorded results:
C(=C1c2ccccc2-c2ccccc21)c1ccccn1 ... false
CC(C)Sc1nc(Cl)c(C#N)c(-c2ccc(F)cc2)n1 ... false

# outcome recorded in this test, key = O=C1NC(=S)S/C1=C\c1cc(Br)ccc1O false

Further, for COc1cnc2c(c1)C(=O)c1c-2n(CCCN2CCC(O)CC2)c(=O)c2cc(F)ccc12 ? true

Subsequent entry: N#CC(C#N)C(C#N)C#N false

Also Cc1ncc(C(=O)Nc2ccc(CN3CCN(C)CC3)c(C(F)(F)F)c2)cc1C#Cc1cncc2ncccc12 , if possible. false

For COc1cc(/C=C/C(=O)C(C(=O)/C=C/c2ccc(OC(=O)CCNc3nnc(C)s3)c(OC)c2)C(=O)CCNc2nnc(C)s2)ccc1OC(=O)CCNc1nnc(C)s1 then? true

Also, Cc1cccc2nnc(-c3ccccc3)n12 please. false
